Target: T1, VEGFR-2-Fc (UniProt P35968 20-322)
T1 construct: domain: first 3 Ig domains; conditioned supernatant of 293T cells; also called VEGFR-2-Fc fusion protein; not shown: Fc fragment of the pIg vector
T1 sequence (P35968 20-322): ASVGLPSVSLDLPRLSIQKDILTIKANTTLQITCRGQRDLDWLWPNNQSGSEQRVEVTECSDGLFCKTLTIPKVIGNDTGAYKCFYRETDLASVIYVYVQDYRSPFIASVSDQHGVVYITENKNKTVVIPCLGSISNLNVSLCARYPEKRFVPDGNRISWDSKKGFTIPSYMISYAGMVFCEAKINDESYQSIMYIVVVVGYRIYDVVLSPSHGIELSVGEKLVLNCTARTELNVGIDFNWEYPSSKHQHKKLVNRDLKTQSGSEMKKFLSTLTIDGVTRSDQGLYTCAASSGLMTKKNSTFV
Assay: receptor-Fc IP
Source text: The binding assay procedure was identical to the immunoprecipitation using pentahistidine antibody described in Example 2, apart from the composition of the immunoprecipitation (IP) mixes. […]
value_kind: binding result

In the examples that follow, each entry is paired with its recorded binding result.
71-13 (ligand) GQNHHEVVKSIDNEWRKTQCMPREVCIDVGKEYPDEIEYIFKPSCVPLMRCGGCCNDEGLECVPTEESNITMQIMRITVPLSQGPKPVTISFANHTSCRCMSKLD = no binding
71-15 (ligand) GQNHHEVVKSIDNEWRKTQCMPREVCIDVGKEYPDEIEYIFKPSCVPLMRCGGCCNSEGLQCVPTEESNITMQIMRITVPLSQGPKPVTISFANHTSCRCMSKLD = no binding
32-1 (ligand) GQNHHEVVKSIDNEWRKTQCMPIETLVDIFQEFGVATNTFFKPPCVSVYRCGGCCNDEGLECVPTEESNITMQIMRIKPHQGQHIGEMSFLQHNKCECRPKKD = no binding
52-6 (ligand) AHYNTEILKSIDNEWRKTQCMPIETLVDIFQEFGVATNTFFKPPCVSVYRCGGCCNDEGLECMNTSTSYLSKTLFEIKPHQGQHIGEMSFANHTSCRCMSKLD = no binding
43-11 (ligand) AHYNTEILKFMDVYQRSYCHPREVCIDVGKEYPDEIEYIFKPPCVSVYRCGGCCNSEGLQCVPTEESNITMQIMRITVPLSQGPKPVTISFLQHNKCECRPKKD = no binding
52-11 (ligand) AHYNTEILKSIDNEWRKTQCMPIETLVDIFQEFGVATNTFFKPPCVSVYRCGGCCNSEGLQCVPTEESNITMQIMRITVPLSQGPKPVTISFLQHNKCECRPKKD = no binding
53-9 (ligand) AHYNTEILKSIDNEWRKTQCMPIETLVDIFQEYPDEIEYIFKPPCVSVYRCGGCCNDEGLECVPTEESNITMQIMRITVPLSQGPKPVTISFLQHNKCECRPKKD = no binding
82-3 (ligand) AHYNTEILKFMDVYQRSYCHPIETLVDIFQEFGVATNTFFKPPCVSVYRCGGCCNSEGLQCVPTEESNITMQIMRIKPHQGQHIGEMSFLQHNKCECRPKKD = no binding
82-9 (ligand, clone entry) AHYNTEILKFMDVYQRSYCHPIETLVDIFQEFGVATNTFFKPPCVSVYRCGGCCNDEGLECVPTEESNITMQIMRITVPLSQGPKPVTISFLQHNKCECRPKKDL = binds
63-15 (ligand) GQNHHEVVKFMDVYQRSYCHPREVCIDVGKEYPDEIEYIFKPPCVSVYRCGGCCNSEGLQCVPTEESNITMQIMRITVPLSQGPKPVTISFANHTSCRCMSKLD = no binding

For the 3 binders below, give their binding result values.
1. 44-13 (ligand) AHYNTEILKFMDVYQRSYCHPREVCIDVGKEFGVATNTFFKPSCVPLMRCGGCCNDEGLECVPTEESNITMQIMRITVPLSQGPKPVTISFANHTSCRCMSKLD
2. 82-15 (ligand) AHYNTEILKFMDVYQRSYCHPIETLVDIFQEFGVATNTFFKPPCVSVYRCGGCCNSEGLQCVPTEESNITMQIMRITVPLSQGPKPVTISFANHTSCRCMSKLD
3. 42-1 (ligand) AHYNTEILKFMDVYQRSYCHPREVCIDVGKEFGVATNTFFKPPCVSVYRCGGCCNDEGLECVPTEESNITMQIMRIKPHQGQHIGEMSFLQHNKCECRPKKD

Outgoing:
no binding
binds
no binding

For the 3 binders below, give their binding result values.
1. 54-9 (ligand) AHYNTEILKSIDNEWRKTQCMPIETLVDIFQEFGVATNTFFKPSCVPLMRCGGCCNDEGLECVPTEESNITMQIMRITVPLSQGPKPVTISFLQHNKCECRPKKD
2. 22-16 (ligand) AHYNTEILKSIDNEWRKTQCMPREVCIDVGKEFGVATNTFFKPPCVSVYRCGGCCNSEGLQCMNTSTSYLSKTLFEITVPLSQGPKPVTISFANHTSCRCMSKLDLVFEQKLISEEDLNSAVDHHHHHH
3. 82-14 (ligand) AHYNTEILKFMDVYQRSYCHPIETLVDIFQEFGVATNTFFKPPCVSVYRCGGCCNDEGLECMNTSTSYLSKTLFEITVPLSQGPKPVTISFANHTSCRCMSKLD

Outgoing:
1. no binding
2. binds
3. no binding
